- PROTOCOL SUMMARY: AUC (0 to infinity) in male Sprague-Dawley rat at 10 mg/kg, ip measured upto 24 hrs by LC-MS/MS analysis
- Type: ADME, organism-based
- DETAILS: in vivo
TEST READOUT: AUC(0-inf) (ng·h/mL)
Reply with just the number (in ng·h/mL).

Using the record for COc1cc(Nc2nc(N3CCN(CCOCCNc4cccc5c4C(=O)N(C4CCC(=O)NC4=O)C5=O)CC3)ncc2F)ccc1NC(=O)c1ccc(C2=CCCC2)s1 (stereo unspecified) , report its AUC(0-inf).
33900

====

- PROTOCOL SUMMARY: AUC (0 to infinity) in male Sprague-Dawley rat at 20 mg/kg, po measured upto 24 hrs by LC-MS/MS analysis
- Format: ADME, organism-based
- DETAILS: in vivo
TEST READOUT: AUC(0-inf)

Using the record for COc1cc(Nc2nc(N3CCN(CCOCCNc4cccc5c4C(=O)N(C4CCC(=O)NC4=O)C5=O)CC3)ncc2F)ccc1NC(=O)c1ccc(C2=CCCC2)s1 (stereo unspecified) , report its AUC(0-inf).
2330 ng·h/mL

====

- Test system: SUD4
- PROTOCOL SUMMARY: Antiproliferative activity against BCL6-dependent human SU-DHL-4 cells assessed as inhibition of cell growth at 10 uM measured after 6 days by MTT assay relative to control
- Format: functional
- DETAILS: SU-DHL-4, 144 h, time 6 day
TEST READOUT: inhibition at 10 µM (%)
Reply with just the number (in %).

{"MOLECULE": "COc1cc(Nc2nc(N3CCN(C(=O)CCOCCNc4cccc5c4C(=O)N(C4CCC(=O)NC4=O)C5=O)CC3)ncc2F)ccc1NC(=O)c1ccc(C2=CCCC2)s1 (stereo not given)", "inhibition at 10 µM, %": 72.9}

Alright, here's another molecule for you.
Using the record for COc1cc(Nc2nc(N3CCN(CCOCCNc4cccc5c4C(=O)N(C4CCC(=O)NC4=O)C5=O)CC3)ncc2F)ccc1NC(=O)c1ccc(C2=CCCC2)s1 (stereo not given) , report its inhibition at 10 µM.
92.6

====

- ASSAYED TARGET: Protein cereblon/B-cell lymphoma 6 protein (Homo sapiens, UniProt Q96SW2+P41182)
- Sequence (Q96SW2 whole entry, looked up, other chains not shown): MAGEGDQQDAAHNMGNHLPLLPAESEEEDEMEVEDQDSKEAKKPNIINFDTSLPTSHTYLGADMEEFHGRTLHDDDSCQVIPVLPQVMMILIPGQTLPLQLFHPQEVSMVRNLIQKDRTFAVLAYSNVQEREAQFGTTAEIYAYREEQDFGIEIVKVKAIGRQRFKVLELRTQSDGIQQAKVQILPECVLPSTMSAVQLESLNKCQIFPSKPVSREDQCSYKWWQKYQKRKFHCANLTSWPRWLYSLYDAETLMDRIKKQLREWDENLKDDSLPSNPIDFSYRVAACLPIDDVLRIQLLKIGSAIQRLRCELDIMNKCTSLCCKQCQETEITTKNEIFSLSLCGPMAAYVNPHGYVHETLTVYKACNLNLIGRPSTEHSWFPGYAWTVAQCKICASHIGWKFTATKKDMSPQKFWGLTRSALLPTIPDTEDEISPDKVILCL
- PROTOCOL SUMMARY: PROTAC activity at CRBN/BCL6 in BCL6-dependent human SU-DHL-4 cells assessed as induction of BCL6 degradation by measuring degradation rate at 10 uM incubated for 48 hrs by Western blot analysis relative to control
- Type: cell-based
TEST READOUT: Activity (%)
Reply with just the number (in %).

{"COMPOUND": "COc1cc(Nc2nc(N3CCN(C(=O)CCCCNc4cccc5c4C(=O)N(C4CCC(=O)NC4=O)C5=O)CC3)ncc2F)ccc1NC(=O)c1ccc(C2=CCCC2)s1 (centres undefined)", "READING UNIT": "%", "Activity": 31.7}

Using the record for COc1cc(Nc2nc(N3CCN(CCOCCNc4ccc5c(c4)C(=O)C(C4CCC(=O)NC4=O)C5=O)CC3)ncc2F)ccc1NC(=O)c1ccc(C2=CCCC2)s1 (centres undefined) , report its Activity.
21.6

====

Form field: Activity (one value per entry).
- ASSAYED TARGET: Protein cereblon/B-cell lymphoma 6 protein (Homo sapiens, UniProt Q96SW2+P41182)
- PROTOCOL SUMMARY: PROTAC activity at CRBN/BCL6 in BCL6-dependent human SU-DHL-4 cells assessed as induction of BCL6 degradation by measuring degradation rate at 1 uM incubated for 48 hrs by Western blot analysis relative to control
- Type: cell-based
Put your answer as a value accompanied by its unit after it.

{"MOLECULE": "COc1cc(Nc2nc(N3CCN(C(=O)CCCCCCNc4cccc5c4C(=O)N(C4CCC(=O)NC4=O)C5=O)CC3)ncc2F)ccc1NC(=O)c1ccc(C2=CCCC2)s1 (configuration not stated)", "ASSAYED TARGET": "Protein cereblon/B-cell lymphoma 6 protein (Homo sapiens, UniProt Q96SW2+P41182)", "Activity": "22.7%"}
{"MOLECULE": "COc1cc(Nc2nc(N3CCN(C(=O)CCOCCOCCOCCOCCNc4cccc5c4C(=O)N(C4CCC(=O)NC4=O)C5=O)CC3)ncc2F)ccc1NC(=O)c1ccc(C2=CCCC2)s1 (configuration not stated)", "ASSAYED TARGET": "Protein cereblon/B-cell lymphoma 6 protein (Homo sapiens, UniProt Q96SW2+P41182)", "Activity": "12.2%"}
{"MOLECULE": "COc1cc(Nc2nc(N3CCN(C(=O)CCOCCNc4cc5c(cc4F)C(=O)C(C4CCC(=O)NC4=O)C5=O)CC3)ncc2F)ccc1NC(=O)c1ccc(C2=CCCC2)s1 (configuration not stated)", "ASSAYED TARGET": "Protein cereblon/B-cell lymphoma 6 protein (Homo sapiens, UniProt Q96SW2+P41182)", "Activity": "0%"}

Using the record for COc1cc(Nc2nc(N3CCN(CCOCCNc4cccc5c4CC(C4CCC(=O)NC4=O)C5=O)CC3)ncc2F)ccc1NC(=O)c1ccc(C2=CCCC2)s1 (configuration not stated) , report its Activity.
15.7%

Another: COc1cc(Nc2nc(N3CCN(CCOCCNc4ccc5c(c4)C(=O)C(C4CCC(=O)NC4=O)C5=O)CC3)ncc2F)ccc1NC(=O)c1ccc(C2=CCCC2)s1 (configuration not stated)
5.2%

Another: COc1cc(Nc2nc(N3CCN(C(=O)CCOCCNc4cccc5c4C(=O)N(C4CCC(=O)NC4=O)C5=O)CC3)ncc2F)ccc1NC(=O)c1ccc(C2=CCCC2)s1 (configuration not stated)
55.7%

Another: COc1cc(Nc2nc(N3CCN(CCOCCOCCNc4cccc5c4C(=O)N(C4CCC(=O)NC4=O)C5=O)CC3)ncc2F)ccc1NC(=O)c1ccc(C2=CCCC2)s1 (configuration not stated)
35.6%
